system_name: BACE1 (Homo sapiens)
Construct: endogenous in cells
Sequence (P56817 46-501): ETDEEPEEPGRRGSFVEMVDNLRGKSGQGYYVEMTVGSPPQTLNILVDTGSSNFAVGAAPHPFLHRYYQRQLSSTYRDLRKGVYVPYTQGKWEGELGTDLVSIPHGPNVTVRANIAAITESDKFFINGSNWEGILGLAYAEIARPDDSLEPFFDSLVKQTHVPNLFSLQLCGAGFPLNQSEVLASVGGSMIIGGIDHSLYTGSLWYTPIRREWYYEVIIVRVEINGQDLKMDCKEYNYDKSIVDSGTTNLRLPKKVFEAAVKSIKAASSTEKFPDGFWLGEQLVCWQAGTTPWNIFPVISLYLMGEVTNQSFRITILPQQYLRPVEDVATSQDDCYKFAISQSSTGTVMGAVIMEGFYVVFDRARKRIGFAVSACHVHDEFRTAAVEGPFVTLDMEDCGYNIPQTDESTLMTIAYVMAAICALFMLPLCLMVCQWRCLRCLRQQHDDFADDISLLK
test_summary: Cellular Aβ-lowering assay (Abeta 40 AlphaLISA)
condition_context: HEK293 APP cells; 18-20 hrs incubation; Aβ 40 in culture supernatants by AlphaLISA; read-out: BACE1 cell act. Aβ40 IC50
Description: Cellular Aβ-lowering assay: The Abeta 40 AlphaLISA Assay can be used. […] In a Perkin-Elmer White Optiplate-384 (Cat#6007290), 2 ul culture supernatants were combined with 2 μl of a 10× AlphaLISA Anti-hAβAcceptor beads+Biotinylated Antibody Anti-Aβ1-40 Mix (50 μg/mL/5 nM). […] Light Emission at 615 nm was then recorded using EnVision-Alpha Reader. Levels of Aβ 40 in the culture supernatants were calculated as percentage of maximum signal (cells treated with 1% DMSO without inhibitor). […]
pIC50: −log10 of the molar value. Structures can show the parent of a compound that is named as a salt.
assay_endpoint: pIC50

{"compound": "C[C@@]1(c2sc(-c3cncc(C#N)c3)cc2Cl)C[C@@H](C(F)(F)F)OC(N)=N1 [Example 31]", "pIC50": 6.47}
{"compound": "C[C@@]1(c2cc(CCc3ccc(C#N)cn3)ccc2F)C[C@@H](C(F)(F)F)OC(N)=N1 [Example 44]", "pIC50": 5.69}
{"compound": "C[C@@]1(c2cc(-c3cncc(C#N)c3)cs2)C[C@@H](C(F)(F)F)OC(N)=N1 [Example 26, Hydrochloride]", "pIC50": 6.15}
{"compound": "C[C@@]1(c2cc(-c3cn(-c4ccc(C#N)cn4)nn3)ccc2F)C[C@@H](C(F)(F)F)OC(N)=N1 [Example 77]", "pIC50": 6.74}
{"compound": "COc1cnc(C#Cc2ccc(F)c([C@]3(C)C[C@@H](C(F)(F)F)OC(N)=N3)c2)cn1 [Example 25]", "pIC50": 5.89}

(a) C[C@@]1(c2cc(NC(=O)c3ccc(Cl)cn3)cs2)C[C@@H](C(F)(F)F)OC(N)=N1 [Example 34]
(b) N#Cc1cnc(C#Cc2ccc(F)c([C@]3(CF)C[C@@H](C(F)(F)F)OC(N)=N3)c2)c(Cl)c1 [Example 59]
Just curious, which one has the larger pIC50 reading, a or b ? Write down the label of the entry you select.
a
(a: 6.48, b: 6.10)

(I) N#Cc1ccc(C#Cc2ccc(F)c([C@]3(CF)C[C@@H](C(F)(F)F)OC(N)=N3)c2)nc1 [Example 62]
(II) Cc1cc(-c2cncc(-c3ccc(F)c([C@]4(CF)C[C@@H](C(F)(F)F)OC(N)=N4)c3)c2)n[nH]1 [Example 47]
I would appreciate it if you could say which entry, I or II , has the lower pIC50 value. Your answer should be the label attached to the chosen record.
II

(A) Cc1cc(F)c([C@]2(C)C[C@@H](C(F)(F)F)OC(N)=N2)cc1C#Cc1ncc(C#N)cc1Cl [Example 69]
(B) C[C@@]1(c2cc(C#Cc3ncc(C#N)s3)ccc2F)C[C@@H](C(F)(F)F)OC(N)=N1 [Example 67]
(C) C[C@@]1(c2cc(C#Cc3ccnc(Cl)c3)ccc2F)C[C@@H](C(F)(F)F)OC(N)=N1 [Example 20]
Give the ascending ranking of the items by reported pIC50. As an answer, provide the labels arranged in the order called for.
B, C, A
(B: 6.02, C: 6.60, A: 6.89)

(P) C[C@@]1(c2cccc(NC(=O)c3ccc(C#N)cn3)c2F)C[C@@H](C(F)(F)F)OC(N)=N1 [Example 37]
(Q) C[C@@]1(c2cc(-c3cccc(C(F)(F)F)c3)cs2)C[C@@H](C(F)(F)F)OC(N)=N1 [Example 28]
// max by pIC50 over [ P , Q ] Choose, then provide that item's label.
P
